The reported measurements were obtained from the supplement of paper PMC10567573.

The entries below are paired with their reported protein stability index.
B1: SPATS1 (parent)
chain: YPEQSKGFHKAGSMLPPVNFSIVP

variants of: B1; assay: protein stability index of a GFP-peptide fusion (GPS, HEK-293T) (PSI 1-6); higher = more stable; conditions: c terminus: a fixed tail appended;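 note: lentivirally expressed fusions sorted by FACS into six bins by GFP to DsRed ratio, PSI derived from sequencing read proportions per bin multiplied by bin number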
The answer should be written as a number, with no unit following it.

Check out these entries, answers already filled in.
> print(dat)
                   monomersequence                valuekind  measured
1  YPEQSKGFHKAKSMLPPVNFSIVP [G12K]  protein stability index      1.98
2   YPEQNKGFHKAGSMLPPVNFSIVP [S5N]  protein stability index      1.99

For record YPEQSKGFHPAGSMLPPVNFSIVP [K10P] the listed protein stability index is 2

For record YPEQSKGFHKAGSMIPPVNFSIVP [L15I] the listed protein stability index is 1.84

For record YPEQSKGFHKAGSMLPPVNDSIVP [F20D] the listed protein stability index is 2.39

For record YPEQSKGFCKAGSMLPPVNFSIVP [H9C] the listed protein stability index is 1.82

For record YPEQSKGFHKAGSMLPPVNQSIVP [F20Q] the listed protein stability index is 2.47

For record YPEQSKGFHFAGSMLPPVNFSIVP [K10F] the listed protein stability index is 1.57

For record YPEQSKGFHKPGSMLPPVNFSIVP [A11P] the listed protein stability index is 2.19

For record YPEQSKGFHKAGSMLPPVNFSLVP [I22L] the listed protein stability index is 2.34
